Test: Plasma stability (Rat)
Format: in vitro ADME
Details: after 60 minutes
property_measured: Plasma (Rat): percent of compound remaining (%)

{"molecule": "CC(C)C(=O)N1CCC2(CCCN2C(=O)C(C)C)C1=O (single isomer, unassigned)", "measured": 89}
{"molecule": "CC(C)CN1CCCC12CC=CCNC2=O (single isomer, unassigned) [GI-1]", "measured": 102}
{"molecule": "CC(=O)N1CCCC12CC=CCNC2=O (single isomer, unassigned)", "measured": 101}
{"molecule": "O=C1N(Cc2ccccc2)CC=CCC12CCCN2 (single isomer, unassigned) [GS-1]", "measured": 95}
{"molecule": "O=C1NCC=CCC12CCCN2Cc1ccccc1 (single isomer, unassigned) [GP-2]", "measured": 85}
{"molecule": "CC(C)(C)OC(=O)N1CCCC12CCCNC2=O (single isomer, unassigned) [EV-2]", "measured": 79}
{"molecule": "O=C1NCCCC12CCCN2 (stereo not shown) [EU-2, 1,7-diazaspiro[4.5]decan-6-one]", "measured": 95}
{"molecule": "NC(=O)CN1CCCC12CC=CCNC2=O (single isomer, unassigned) [GQ-1]", "measured": 98}
{"molecule": "O=C1NCCCC12CCCCN2 (single isomer, unassigned) [AX, 1,8-diazaspiro[5.5]undecan-7-one]", "measured": 99}
{"molecule": "O=C1NCC=CC[C@]12CCCN2 [GA, (R)-1,7-diazaspiro[4.6]undec-9-en-6-one]", "measured": 100}

---

Experiment: Microsomal stability (Human)
Type: in vitro ADME
Details: after 60 minutes
property_measured: Microsomal (Human): percent of compound remaining (%)

{"compound": "O=C1NCCCC12CCCN2 (centres unmarked) [EU-2, 1,7-diazaspiro[4.5]decan-6-one]", "measured": 100}
{"compound": "O=C1NCC=CCC12CCCN2Cc1ccccc1 (single isomer, unassigned) [GP-1]", "measured": 80}
{"compound": "CC(C)C(=O)N1CCCC12CC=CCNC2=O (single isomer, unassigned) [GH-2]", "measured": 87}
{"compound": "O=C1NCCCCC12CCCNC2 (single isomer, unassigned) [CF, 2,8-diazaspiro[5.6]dodecan-7-one]", "measured": 91}
{"compound": "O=C1NCC=CCC12CC(F)(F)CN2 (single isomer, unassigned) [GL-2]", "measured": 99}
{"compound": "O=C1N(Cc2ccc(F)cc2)CC=CCC12CCCN2 (single isomer, unassigned) [GK-2]", "measured": 94}
{"compound": "O=C1NCC=CCC12CCCN2Cc1ccc(F)cc1 (single isomer, unassigned) [GJ-2]", "measured": 95}
{"compound": "NC(=O)CN1CCCC12CC=CCNC2=O (single isomer, unassigned) [GQ-1]", "measured": 88}
{"compound": "CC(C)(C)OC(=O)N1CCCC12CCCNC2=O (single isomer, unassigned) [EV-2]", "measured": 79}
{"compound": "O=C1NCC=CCC12CCCN2Cc1ccc(F)cc1 (single isomer, unassigned) [GJ-1]", "measured": 83}
{"compound": "O=C1N(Cc2ccccc2)CC=CCC12CCCN2 (single isomer, unassigned) [GS-1]", "measured": 99}
{"compound": "CC(C)CN1CCCC12CC=CCNC2=O (single isomer, unassigned) [GI-1]", "measured": 96}
{"compound": "O=C1NCCCC12CCCCN2 (single isomer, unassigned) [AX, 1,8-diazaspiro[5.5]undecan-7-one]", "measured": 93}
{"compound": "O=C1N(Cc2ccccc2)CC=CCC12CCCN2 (single isomer, unassigned) [GS-2]", "measured": 90}
{"compound": "NC(=O)CN1CCCC12CC=CCNC2=O (single isomer, unassigned) [GQ-2]", "measured": 94}
{"compound": "CN1CC=CCC2(CCCN2Cc2ccccc2)C1=O (single isomer, unassigned) [GT-1]", "measured": 72}
{"compound": "CC(C)C(=O)N1CCC2(CCCN2C(=O)C(C)C)C1=O (single isomer, unassigned) [GU-1]", "measured": 96}
